Biological target: BaF3-FLT3-ITD-F691L (Homo sapiens, UniProt P36888, INS600HVDFREYEYD/F691L, cells depend on it)
Sequence (P36888 with tags, fused parts or gaps with the stated changes): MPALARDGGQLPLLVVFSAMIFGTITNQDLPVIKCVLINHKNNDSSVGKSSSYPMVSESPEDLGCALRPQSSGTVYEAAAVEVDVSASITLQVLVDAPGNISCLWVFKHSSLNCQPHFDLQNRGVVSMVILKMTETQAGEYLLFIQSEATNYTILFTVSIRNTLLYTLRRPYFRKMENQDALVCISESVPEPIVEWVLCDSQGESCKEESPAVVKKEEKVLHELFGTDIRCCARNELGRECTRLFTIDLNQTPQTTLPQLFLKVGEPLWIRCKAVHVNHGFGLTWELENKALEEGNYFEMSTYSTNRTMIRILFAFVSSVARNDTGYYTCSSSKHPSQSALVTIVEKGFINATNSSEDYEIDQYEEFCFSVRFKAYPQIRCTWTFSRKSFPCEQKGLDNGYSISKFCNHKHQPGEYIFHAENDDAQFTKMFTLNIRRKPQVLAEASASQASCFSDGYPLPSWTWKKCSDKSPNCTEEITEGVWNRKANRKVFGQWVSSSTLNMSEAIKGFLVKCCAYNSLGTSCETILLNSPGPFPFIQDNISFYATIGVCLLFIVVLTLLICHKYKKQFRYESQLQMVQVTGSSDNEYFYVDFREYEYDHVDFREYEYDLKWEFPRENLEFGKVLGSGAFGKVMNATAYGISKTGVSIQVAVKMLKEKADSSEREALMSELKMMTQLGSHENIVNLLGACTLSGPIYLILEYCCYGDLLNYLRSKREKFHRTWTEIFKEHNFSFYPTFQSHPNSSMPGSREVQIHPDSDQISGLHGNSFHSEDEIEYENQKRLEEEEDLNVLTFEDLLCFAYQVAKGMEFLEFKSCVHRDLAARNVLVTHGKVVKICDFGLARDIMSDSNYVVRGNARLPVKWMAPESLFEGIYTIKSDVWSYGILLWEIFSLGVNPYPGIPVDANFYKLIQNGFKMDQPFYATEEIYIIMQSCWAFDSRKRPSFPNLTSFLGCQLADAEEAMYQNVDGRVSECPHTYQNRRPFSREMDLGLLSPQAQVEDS
Test: CTB viability assay CS0047, BaF3-FLT3-ITD-F691L
Type: cell-based, murine
Conditions: BaF3-FLT3-ITD-F691L cells, CellTiter Blue viability, 72 hours; read-out: Cell Assay: CS0047:BaF3-FLT3-ITD-F691L CTB:IC50
Recorded endpoint: GI50

In: So what's the measured GI50 for this one? Cc1nn(C)c(C)c1Nc1ncc(-c2ccc(CC(=O)Nc3cc(C4(C(F)(F)F)CC4)on3)c(F)c2)cn1 [P-029]
Out: 10 to 50 nM

In: What do we get for Cc1nn(C)cc1Nc1ncc(-c2ccc(CC(=O)Nc3cc(C4(C(F)(F)F)CC4)on3)c(F)c2)c(N)n1 [P-149] ?
Out: 10 to 50 nM

In: Try this compound too: C=CC(=O)Nc1nn(C)cc1Nc1ncc(-c2ccc(CC(=O)Nc3cc(C4(C(F)(F)F)CC4)on3)c(F)c2)cn1 [P-125]
Out: 10 to 50 nM

----------
Molecular target: BaF3-FLT3-ITD (Homo sapiens, UniProt P36888, INS600HVDFREYEYD, cells depend on it)
Sequence (P36888 with tags, fused parts or gaps with the stated changes): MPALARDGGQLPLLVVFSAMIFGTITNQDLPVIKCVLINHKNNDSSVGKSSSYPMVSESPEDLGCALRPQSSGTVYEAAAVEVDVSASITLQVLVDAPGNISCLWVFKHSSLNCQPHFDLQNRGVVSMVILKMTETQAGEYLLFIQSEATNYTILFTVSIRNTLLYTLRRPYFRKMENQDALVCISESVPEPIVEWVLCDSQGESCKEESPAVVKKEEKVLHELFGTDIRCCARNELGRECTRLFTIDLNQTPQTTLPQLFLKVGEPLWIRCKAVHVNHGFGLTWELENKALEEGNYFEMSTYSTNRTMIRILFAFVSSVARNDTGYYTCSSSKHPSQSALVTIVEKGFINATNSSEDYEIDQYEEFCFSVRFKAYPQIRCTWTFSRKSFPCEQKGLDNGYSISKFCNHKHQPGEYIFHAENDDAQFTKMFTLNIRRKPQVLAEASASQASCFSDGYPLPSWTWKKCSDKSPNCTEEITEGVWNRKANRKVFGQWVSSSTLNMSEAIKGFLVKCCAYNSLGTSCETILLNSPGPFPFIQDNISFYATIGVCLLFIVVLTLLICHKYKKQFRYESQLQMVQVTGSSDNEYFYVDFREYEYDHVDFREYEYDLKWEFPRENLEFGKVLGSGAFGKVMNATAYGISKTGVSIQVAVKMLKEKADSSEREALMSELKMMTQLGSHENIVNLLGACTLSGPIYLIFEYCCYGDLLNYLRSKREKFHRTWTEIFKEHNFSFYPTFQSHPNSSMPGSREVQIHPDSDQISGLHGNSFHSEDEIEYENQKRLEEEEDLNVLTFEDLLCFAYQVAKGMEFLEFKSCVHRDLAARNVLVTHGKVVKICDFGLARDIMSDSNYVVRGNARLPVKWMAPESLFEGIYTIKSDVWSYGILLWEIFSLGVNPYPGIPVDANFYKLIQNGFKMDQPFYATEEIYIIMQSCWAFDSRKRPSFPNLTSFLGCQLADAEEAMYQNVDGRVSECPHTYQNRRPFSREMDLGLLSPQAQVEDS
Experiment: CTB viability assay CS0046, BaF3-FLT3-ITD
Assay type: cell-based, murine
Conditions: Table 4, compounds from WO 2011/022473; CellTiter Blue viability, 72 hours; read-out: Cell Assay: CS0046: BaF3-FLT3-ITD CTB: IC50
Recorded endpoint: GI50 (nM)
# unit: nM | format: bare number

In: What GI50 value was documented for this compound, CNc1ccc(-c2ccc(CC(=O)Nc3cc(C(C)(C)C)on3)cc2)cn1 [reference compound] ?
Out: 0.146

In: Same thing, different compound: CCNc1ccc(-c2ccc(CC(=O)Nc3cc(C(C)(C)C)on3)cc2)cn1 [reference compound]
Out: 0.252

In: Another compound to look at: CC(C)(C)c1cc(NC(=O)Nc2ccc(-c3cnc(NC4CC4)nc3)cn2)no1 [reference compound]
Out: 5.91

In: Quick one: CC(C)(c1cc(NC(=O)Cc2ccc(-c3ccc(NCCN4CCOCC4)nc3)cc2)no1)C(F)(F)F [reference compound]
Out: 0.597

In: Next compound: CC(C)(C)c1cc(NC(=O)Nc2ccc(-c3cnc(NC4CCOCC4)nc3)cn2)no1 [reference compound]
Out: 6.6

----------
Target: BaF3-FLT3-ITD-F691L (Homo sapiens, UniProt P36888, INS600HVDFREYEYD/F691L, cells depend on it)
Assay: CTB viability assay CS0047, BaF3-FLT3-ITD-F691L
Format: cell-based, murine
Conditions: Table 4, compounds from WO 2011/022473; CellTiter Blue viability, 72 hours; read-out: Cell Assay: CS0047: BaF3-FLT3-ITD-F691L CTB: IC50
Returns: string. Value is True if measured GI50 is below 0.08 µM, and False if it is greater than or equal to it.

In: Item CC(C)(C)c1cc(NC(=O)Nc2ccc(-c3cnc(NC4CCOCC4)nc3)cn2)no1 [reference compound] : GI50 beneath 0.08 µM, strictly?
Out: False

In: Consider next the compound CNc1ccc(-c2ccc(CC(=O)Nc3cc(C(C)(C)C)on3)cc2)cn1 [reference compound] in the same way.
Out: True

In: Param item: CCNc1ccc(-c2ccc(CC(=O)Nc3cc(C(C)(C)C)on3)cc2)cn1 [reference compound]
Out: True

In: Item: CC(C)(c1cc(NC(=O)Cc2ccc(-c3ccc(NCCN4CCOCC4)nc3)cc2)no1)C(F)(F)F [reference compound]
Out: True
